B1: TPR 5TU (parent)
chain: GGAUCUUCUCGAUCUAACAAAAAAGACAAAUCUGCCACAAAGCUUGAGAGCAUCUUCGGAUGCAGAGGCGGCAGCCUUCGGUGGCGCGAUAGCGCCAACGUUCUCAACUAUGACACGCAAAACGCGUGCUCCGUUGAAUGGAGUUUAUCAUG

# Variants of: B1
# Test details: polymerase ribozyme fitness, log enrichment relative to wild type (log ratio); higher = more active; in vitro selection for triplet polymerase activity
This sample holds only a part of the variants without activity.
Overview of recorded polymerase ribozyme fitness (log ratio) for various variants
Quantity kind: polymerase ribozyme fitness (log ratio)

>>> test_value("G48A G136C")
-2.57
>>> test_value("G94U C125U G143U")
-4.16
>>> test_value("A98U C118U U144G")
0.244
>>> test_value("U31G G59A")
0.625
>>> test_value("A16C G81A")
-0.894
>>> test_value("A22C C125U")
-0.469
>>> test_value("C54A C95U")
-2.22
>>> test_value("C114U A122G")
-1.87
>>> test_value("A12G U53A U56A U82G A91U G117C A142G")
-4.16
>>> test_value("U56G G84U")
-2.16
>>> test_value("G58C C96U A150G")
-0.919
>>> test_value("U55G G92C")
-0.157
>>> test_value("C14G G94C")
-2.23
>>> test_value("C96A C118U")
-1.8
>>> test_value("U55G G80A C87U")
-0.574
>>> test_value("A19C C27A A39C C79U C93A U102G G117C")
-4.01
>>> test_value("U6A A60C A142G")
-3.03
>>> test_value("C14U G83U C95U C116U")
-1.49
>>> test_value("G11U U61A C87U")
-3.78
>>> test_value("G92A G126U")
-2.26

// provenance: the RNAGym collection of RNA variant scans (doi:10.1073/pnas.2313332121)
